Target protein (sequence): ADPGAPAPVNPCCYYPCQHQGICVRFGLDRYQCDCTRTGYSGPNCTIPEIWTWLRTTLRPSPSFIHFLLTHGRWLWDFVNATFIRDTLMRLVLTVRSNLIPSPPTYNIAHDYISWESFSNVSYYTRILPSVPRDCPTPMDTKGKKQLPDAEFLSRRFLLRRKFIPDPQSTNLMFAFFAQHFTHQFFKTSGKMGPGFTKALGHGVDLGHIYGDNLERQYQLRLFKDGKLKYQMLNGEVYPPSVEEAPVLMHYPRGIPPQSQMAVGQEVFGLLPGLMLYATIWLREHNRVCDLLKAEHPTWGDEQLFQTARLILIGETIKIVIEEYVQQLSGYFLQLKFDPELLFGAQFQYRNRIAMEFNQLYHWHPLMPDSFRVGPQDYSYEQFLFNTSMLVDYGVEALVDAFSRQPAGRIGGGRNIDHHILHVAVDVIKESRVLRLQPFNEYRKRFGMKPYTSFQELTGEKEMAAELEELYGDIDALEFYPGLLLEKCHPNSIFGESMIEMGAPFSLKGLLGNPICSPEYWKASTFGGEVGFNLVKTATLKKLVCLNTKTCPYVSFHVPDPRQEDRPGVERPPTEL
attribute measured: pIC50
Scale: negative log10 of molar concentration, which is what pIC50 denotes.

Query: Returns the measured pIC50 for the input compound. Input: CS(=O)(=O)c1ccc(-c2nc3ccccc3n2CC(=O)N/N=C/c2ccc(F)cc2)cc1 [11d]
Response: 4.99

* * *

# tested system: ovine COX-2 (Ovis aries)
# Sequence (P79208 17-603): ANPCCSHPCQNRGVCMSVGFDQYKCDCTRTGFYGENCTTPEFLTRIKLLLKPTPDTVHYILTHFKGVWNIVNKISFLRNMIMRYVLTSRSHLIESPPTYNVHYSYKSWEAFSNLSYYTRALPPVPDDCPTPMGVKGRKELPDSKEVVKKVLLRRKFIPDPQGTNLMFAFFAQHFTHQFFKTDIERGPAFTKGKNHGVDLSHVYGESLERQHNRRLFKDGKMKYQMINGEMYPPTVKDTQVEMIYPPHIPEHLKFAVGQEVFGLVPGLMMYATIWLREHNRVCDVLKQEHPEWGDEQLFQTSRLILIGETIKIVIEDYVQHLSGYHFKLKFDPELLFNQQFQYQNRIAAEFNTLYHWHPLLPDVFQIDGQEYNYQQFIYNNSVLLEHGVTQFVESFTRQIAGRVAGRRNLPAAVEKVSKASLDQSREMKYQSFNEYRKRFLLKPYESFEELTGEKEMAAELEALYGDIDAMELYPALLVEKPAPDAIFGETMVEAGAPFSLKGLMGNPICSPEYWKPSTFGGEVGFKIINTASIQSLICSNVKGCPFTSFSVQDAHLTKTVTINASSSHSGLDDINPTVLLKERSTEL
# experiment notes: In vitro cyclooxygenase
# Type: biochemical
# stated conditions: COX-1 IC50/COX-2 IC50
This listing pairs compounds with measured Selectivity index (SI).
Quick one: just the number, no unit, thanks!

>  <compound>
C/C(=N\NC(=O)Cn1c(-c2ccc(S(C)(=O)=O)cc2)nc2ccccc21)c1ccc(Cl)cc1 [12b]

>  <tested system>
ovine COX-2 (Ovis aries)

>  <numeric result>
125

$$$$

Query: Form field: reported Selectivity index (SI) of C/C(=N\NC(=O)Cn1c(-c2ccc(S(C)(=O)=O)cc2)nc2cc(Cl)ccc21)c1ccc(Cl)cc1 [12d]
Response: 132

Query: Thanks! And COc1ccc(/C=N/NC(=O)Cn2c(-c3ccc(S(C)(=O)=O)cc3)nc3cc(C)ccc32)cc1 [11k] ?
Response: 123
